# System: viable cells in culture
# assay_method_text: Cell viability assay at 10 μM (CellTiter-Glo, Table VII);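 further: graded A 0-20%; B 21-40%; C 41-60%; D over 60% viable cells relative to DMSO control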
# Type: cell-based
# condition_description: RKO; compound 10 μM; 72 h; read-out: percentage (%) of viable cells RKO
Listing of recorded viability at 10 µM by entry.

COc1cc2c(Oc3ccc(NS(=O)(=O)c4ccccc4[N+](=O)[O-])cc3F)ccnc2cc1OCCCN1CCN(C)CC1 ... 41 to 60%

Supply recorded viability at 10 µM for COc1cc2c(Oc3ccc(NS(=O)(=O)c4cc(F)ccc4F)cc3F)ccnc2cc1OCC1CCCNC1 (stereo not drawn) here. 0 to 20%

---

In this section we review reported pIC50 values for a set of compounds.
# System: Hs578T
# assay_method_text: Matrigel outgrowth assay/branching assay
# Assay type: cell-based
# condition_description: Homo sapiens, Hs-578T; HS578T cell line; Table Ib; read-out: Total branching inhibition in Matrigel HS578T
pIC50: −log10 of the molar value.

Sample answers from the record:
COc1cc2c(Oc3ccc(NS(=O)(=O)c4ccccc4C(F)(F)F)cc3F)ccnc2cc1OCCCN(C)C [Example 100] ... ≥ 5.00
COc1cc2c(Oc3ccc(NS(=O)(=O)c4cccc(C)c4)cc3F)ccnc2cc1OCCCN1CCCC(C)C1 (centres unmarked) [Example 70] ... ≥ 5.00
COc1cc2c(Oc3ccc(NS(=O)(=O)c4cccc(OC(F)(F)F)c4)cc3F)ccnc2cc1OCCCN1CCCC(C)C1 (centres unmarked) [Example 46] ... ≥ 5.00
CN1CCN(CCCOc2ccc3nccc(Oc4ccc(NS(=O)(=O)c5ccccc5C(F)(F)F)cc4F)c3c2)CC1 [Example 85] ... ≥ 5.00
COc1cc2c(Oc3cccc(NS(=O)(=O)c4ccccc4OC(F)(F)F)c3)ccnc2cc1OCCCN1CCN(C)CC1 [Example 126] ... 4.60 to 5.00
COc1cc2c(Oc3ccc(NS(=O)(=O)c4c(F)cccc4F)cc3F)ccnc2cc1OCCCN1CCCCC1C (centres unmarked) [Example 152] ... ≥ 5.00
COc1cc2c(Oc3ccc(NS(=O)(=O)c4c(C)nn(C)c4C)cc3F)ccnc2cc1OCCCN1CCCCC1 [Example 159] ... 4.60 to 5.00
COc1cc2c(Oc3ccc(NS(=O)(=O)c4c(F)cccc4F)cc3F)ccnc2cc1OCCCN1CCN(C)CC1 [Example 110] ... ≥ 5.00
COc1cc2c(Oc3ccc(Cl)c(NS(=O)(=O)c4c(F)cccc4F)c3)ccnc2cc1OCCCN1CCC(C)CC1 [Example 194] ... 4.60 to 5.00
COc1cc2c(Oc3ccc(NS(=O)(=O)c4csc5ccccc45)cc3F)ccnc2cc1OCCCN1CCOCC1 [Example 114] ... 4.60 to 5.00

Annotate the compound COc1cc2c(Oc3ccc(NS(=O)(=O)c4c(Cl)cccc4Cl)cc3Cl)ccnc2cc1OCCCN1CCN(C)CC1 [Example 119] with its measured pIC50. ≥ 5.00

Entry COc1cc2c(Oc3ccc(NS(=O)(=O)c4cc(Cl)cc(Cl)c4OC)cc3F)ccnc2cc1OCCCN1CCOCC1 [Example 76] needs its pIC50 filled in; supply it. 4.60 to 5.00

Identify pIC50 associated with the compound COc1cc2c(Oc3cccc(NS(=O)(=O)c4c[nH]c(C)n4)c3)ccnc2cc1OCCCN1CCN(C)CC1 [Example 141] 4.60 to 5.00

---

# System: Hs578T
# assay_method_text: Matrigel outgrowth assay/branching assay
# Format: cell-based
# condition_description: Homo sapiens, Hs-578T; HS578T cell line; Table Ib; read-out: Total branching inhibition in Matrigel HS578T
pIC50: −log10 of the molar value.
property_measured: pIC50

// solved cases for pIC50 follow
COc1cc2c(Oc3ccc(NS(=O)(=O)c4ccccc4[N+](=O)[O-])cc3F)ccnc2cc1OCCN1CCOCC1 ... 4.60 to 5.00
COc1cc2c(Oc3ccc(NS(=O)(=O)c4ccc(C)c(F)c4)cc3F)ccnc2cc1OCCCN1CCCC(C)C1 (centres unmarked) ... 4.60 to 5.00

For the compound COc1ccc2nccc(Oc3ccc(NS(=O)(=O)c4c(Cl)cccc4Cl)cc3F)c2c1 , give its reported pIC50. 4.60 to 5.00

Name the recorded pIC50 of the item COc1ccc2nccc(Oc3ccc(NS(=O)(=O)c4cc(F)ccc4F)cc3F)c2c1 in your answer. 4.60 to 5.00

// fetch pIC50 given entry COc1cc2c(Oc3ccc(NS(=O)(=O)c4cccc(OC(F)F)c4)cc3F)ccnc2cc1OCCCN1CCCCC1 4.60 to 5.00

Indicate the recorded pIC50 value for this compound: COc1cc2c(Oc3ccc(NS(=O)(=O)c4c(F)cccc4F)cc3F)ccnc2cc1OCCCN1CCCCC1 4.60 to 5.00

Give recorded pIC50. COc1cc2c(Oc3ccc(NS(=O)(=O)c4ccccc4C(F)(F)F)cc3C)ccnc2cc1OCCCN1CCC(C)CC1 ≥ 5.00

Look up pIC50 of COc1cc2c(Oc3ccc(NS(=O)(=O)c4c(Cl)cccc4Cl)cc3F)ccnc2cc1OCCCN1CCCCC1 and report it. ≥ 5.00

# return recorded pIC50 for entry COc1cc2c(Oc3cc(NS(=O)(=O)c4cc(Cl)ccc4Cl)ccc3F)ccnc2cc1OCCCN1CCC(C)CC1 4.60 to 5.00

Return reported pIC50. Input compound: COc1cc2c(Oc3ccc(NS(=O)(=O)c4ccccc4C(F)(F)F)cc3OC)ccnc2cc1OCCCN1CCC(C)CC1 4.60 to 5.00

Indicate its recorded pIC50; the compound in question is COc1cc(S(=O)(=O)Nc2ccc(Oc3ccnc4cc(OCCCN5CCN(C)CC5)c(OC)cc34)c(F)c2)ccc1F ≥ 5.00

Give reported pIC50 value for COc1cc2c(Oc3ccc(NS(=O)(=O)c4ccn(C)n4)cc3F)ccnc2cc1OCCCN1CCOCC1 4.60 to 5.00

Report pIC50 for COc1cc2c(Oc3ccc(NS(=O)(=O)c4cnc(C)[nH]4)cc3F)ccnc2cc1OCCCN1CCC(C)CC1 4.60 to 5.00

Return reported pIC50. Input compound: COC(=O)c1sccc1S(=O)(=O)Nc1ccc(Oc2ccnc3cc(OCCCN4CCC(C)CC4)c(OC)cc23)c(F)c1 4.60 to 5.00

---

# Tested on: MDA-MB231
# assay_method_text: Cell vitality assay (ATP assay, CellTiter-Glo)
# Format: cell-based
# condition_description: Homo sapiens, MDA-MB-231; MDA-MB231, 72 h; Table IIa; read-out: IC50 ATP-Assay after 72 h MDA-MB231
pIC50: −log10 of the molar value.
property_measured: pIC50

Some molecules with recorded pIC50:
COc1cc2c(Oc3ccc(NS(=O)(=O)c4ccccc4OC)cc3F)ccnc2cc1OCCCN1CCN(C)CC1 [Example 33] ... ≥ 4.90
COc1cc2c(Oc3ccc(NS(=O)(=O)c4cccc(Oc5ccccc5)c4)cc3F)ccnc2cc1OCCCN1CCN(C)CC1 [Example 14] ... ≥ 4.90
COc1cc2c(Oc3ccc(NS(=O)(=O)c4ccccc4C(F)(F)F)cc3F)ccnc2cc1OCCCN1CCCCC1C (stereo not drawn) [Example 99] ... ≥ 4.90
COc1cc2c(Oc3ccc(NS(=O)(=O)c4ccccc4Cl)cc3F)ccnc2cc1OCCCN1CCN(C)CC1 [Example 29] ... ≥ 4.90
COc1cc2c(Oc3ccc(NS(=O)(=O)c4ccccc4C(F)(F)F)cc3Cl)ccnc2cc1OCCCN1CCN(C)CC1 [Example 87] ... 4.30 to 4.90

// moving on: another record for pIC50
Look up and report measured pIC50 (MDA-MB231) for the following molecule: COc1cc2c(Oc3ccc(NS(=O)(=O)c4cccc(C#N)c4)cc3F)ccnc2cc1OCCCN1CCCC(C)C1 (stereo not drawn) [Example 41] ≥ 4.90

---

# Tested on: Hs578T
# assay_method_text: Matrigel outgrowth assay/branching assay
# Type: cell-based
# condition_description: Homo sapiens, Hs-578T; HS578T cell line; Table Ib; read-out: Total branching inhibition in Matrigel HS578T
pIC50: −log10 of the molar value.
As shown below, each of these compounds has a reported pIC50 value.

Query pIC50 for COc1cc2c(Oc3ccc(NS(=O)(=O)c4cccc(Oc5ccccc5)c4)cc3F)ccnc2cc1OCCCN1CCCCC1 ≥ 5.00

---

Catalogue of melting point values

Recorded melting point, per entry:
COc1cc2c(Oc3ccc(NS(=O)(=O)c4ccc(Cl)c(Cl)c4)cc3F)ccnc2cc1OCCCN1CCCC(C)C1 (stereo not shown) ... 123 to 124 °C
COc1cc2c(Oc3ccc(NS(=O)(=O)c4ccccc4C#N)cc3F)ccnc2cc1OCCCN1CCN(C)CC1 ... 109 to 111 °C
COc1cc2c(Oc3ccc(NS(=O)(=O)c4cccc(Oc5ccccc5)c4)cc3F)ccnc2cc1OCCCN1CCN(C)CC1 ... 140 to 141 °C
COc1cc2c(Oc3ccc(NS(=O)(=O)c4cc(F)ccc4F)cc3F)ccnc2cc1OCCCN1CCCCC1 ... 206 to 208 °C
COc1cc2c(Oc3ccc(NS(=O)(=O)c4ccsc4)cc3F)ccnc2cc1OCCCN1CCCC(C)C1 (stereo not shown) ... 174 to 176 °C

Identify the reported melting point for the following entry. COc1cc2c(Oc3ccc(NS(=O)(=O)c4ccccc4F)cc3F)ccnc2cc1OCCCN1CCN(C)CC1 185 to 186 °C

State its melting point: COc1cc2c(Oc3ccc(NS(=O)(=O)c4cnc(C)[nH]4)cc3F)ccnc2cc1OCCCN1CCCCC1 160 to 163 °C
